procedure-details: chemical genetic growth profiling, strain panel (AID 1159580);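 note: tested at 20 µM; growth read once vehicle control cultures reached saturation at 30 °C; 1 = growth at the plate median or of vehicle wells; lower values mean less growth of the strain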
setup-conditions: S. cerevisiae deletion strains, growth OD, locus YJR075W, strain HOC1, active compounds read low
The whole screen tested about 5,500 compounds, of which about 2,000 (36%) were called active. Another 18% or so got no clear call; they are omitted. This is one part of the list.
Consider the following compounds; for each one, report its normalized growth.
Keep it simple and answer with nothing but the number.

Query: Form field: reported normalized growth of CCC(C)C(=O)OC1CC2(C)C(c3ccoc3)OC(=O)CC23OC2(C)OC34C(OC(=O)C(C)C)C3(O)C(OC(=O)C5(C)OC5C)C5(C)CC3(O)C(C)(C5C(=O)OC)C14O2 (stereo not drawn)
Response: 1.03

Query: For "CCN(CC)Cc1ccc(Nc2ccnc3cc(Cl)ccc23)cc1O" then?
Response: 1.01

Query: For CCC(C)C(=O)O[C@@H]1C[C@@]2(C)[C@H](c3ccoc3)OC(=O)CC23OC2(C)OC34[C@H](OC(=O)C(C)C)[C@@]3(O)[C@@H](OC(=O)C5(C)OC5C)[C@@]5(C)C[C@]3(O)[C@@](C)([C@H]5CC(=O)OC)C14O2 (stereo partly drawn) then?
Response: 1.02
